B1: EHEE_rd2_1257 (parent)
chain: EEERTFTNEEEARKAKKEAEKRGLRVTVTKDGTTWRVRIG

Variants of: B1
TEST DETAILS: folding stability dG (cDNA display proteolysis); higher = more stable
TEST CONTEXT: PBS, room temperature
Assignment: determine reported folding stability dG for the given variants.
Report only the number, with the unit kcal/mol understood.

Qu. Return reported folding stability dG; argument: EEERTFTNEEEARKAKKEAEKRGLIVTVTKDGTTWRVRIG [R25I]
Ans. 1.95

Qu. Return reported folding stability dG; argument: EEERTFTNEEEARKASKEAEKRGLRVTVTKDGTTWRVRIG [K16S]
Ans. 1.99

Qu. Return reported folding stability dG; argument: EEERTFTNEEEARKAKKESEKRGLRVTVTKDGTTWRVRIG [A19S]
Ans. 0.779

Qu. Return reported folding stability dG; argument: EEERTFTNEEEARKAKKEAEYRGLRVTVTKDGTTWRVRIG [K21Y]
Ans. 1.82

Qu. Return reported folding stability dG; argument: EEERTFTNEEEARWAKKEAEKRGLRVTVTKDGTTWRVRIG [K14W]
Ans. 1.94

Qu. Return reported folding stability dG; argument: EEERTFTNEHEARKAKKEAEKRGLRVTVTKDGTTWRVRIG [E10H]
Ans. 1.96

Qu. Return reported folding stability dG; argument: EEERFFTNEEEARKAKKEAEKRGLRVTVTKDGTTWRVRIG [T5F]
Ans. 2.19

Qu. Return reported folding stability dG; argument: EEERTFTNEEEARKAKKEAEKRGLRVTVTKDATTWRVRIG [G32A]
Ans. 0.985

Qu. Return reported folding stability dG; argument: EEERTFTNEEEARKAKKEAEKRGLPVTVTKDGTTWRVRIG [R25P]
Ans. 1.47

Qu. Return reported folding stability dG; argument: EEERAFTNEEEARKAKKEAEKRGLRVTVTKDGTTWRVRIG [T5A]
Ans. 1.49

Qu. Return reported folding stability dG; argument: EEERTFTNEEEARKAKKEAEKRGLRVTCTKDGTTWRVRIG [V28C]
Ans. 1.96

Qu. Return reported folding stability dG; argument: EEERTFTNEEEARKAKKEAEKRWLRVTVTKDGTTWRVRIG [G23W]
Ans. 0.38

Qu. Return reported folding stability dG; argument: EEERTFTNEEEARKAKKEAEKRGLRVTVTKDGTKWRVRIG [T34K]
Ans. 1.97

Qu. Return reported folding stability dG; argument: EEERTFTNEEEARKAKKEAEKRGLRVTVTEDGTTWRVRIG [K30E]
Ans. 1.31

Qu. Return reported folding stability dG; argument: EEERTFTNEEEAKKAKKEAEKRGLRVTVTKDGTTWRVRIG [R13K]
Ans. 2.05

Qu. Return reported folding stability dG; argument: EEERTFTNEEEARKAKKEAEKRGLRVTVTKDGTTWCVRIG [R36C]
Ans. 1.91

Qu. Return reported folding stability dG; argument: EEERGFTNEEEARKAKKEAEKRGLRVTVTKDGTTWRVRIG [T5G]
Ans. 0.704

Qu. Return reported folding stability dG; argument: EEERTFRNEEEARKAKKEAEKRGLRVTVTKDGTTWRVRIG [T7R]
Ans. 1.58

Qu. Return reported folding stability dG; argument: EEERTFTNEEEARKAKKEAEKRGMRVTVTKDGTTWRVRIG [L24M]
Ans. 1.79
